Experiment: Pharmacokinetics of the compounds in SD rats (Example 36)
Format: in vivo
Details: po; Gavage administration - 10 mg/kg; SD rat plasma
Where a name gives a salt, the structure may show the parent alone.
Decide using Cmax alone. Strictly below 5000 ng/mL: Criterion met. Equal to or above 5000 ng/mL: Criterion not met.

• CCOC(=O)OC(C)OC(=O)c1ccnc(-c2ccc3c(c2)c(C#N)nn3C(C)C)c1 (stereo not drawn) [Compound 26] = Criterion not met
• CC(C)n1nc(C#N)c2cc(-c3cc(C(=O)Oc4cccc(CO[N+](=O)[O-])c4)ccn3)ccc21 [Compound 42] = Criterion met
• CCOC(=O)c1cnn(-c2ccc3c(c2)c(C#N)nn3C(C)C)c1 [Compound 2] = Criterion met
• COC(=O)c1cnn(-c2ccc3c(c2)c(C#N)nn3C(C)C)c1 [Compound 5] = Criterion not met
• COCCOC(=O)c1ccnc(-c2ccc3c(c2)c(C#N)nn3C(C)C)c1 [Compound 31, hydrobromide] = Criterion met
• CC(=O)OCCOC(=O)c1ccnc(-c2ccc3c(c2)c(C#N)nn3C(C)C)c1 [Compound 28] = Criterion met
• CC(C)OC(=O)c1cnn(-c2ccc3c(c2)c(C#N)nn3C(C)C)c1 [Compound 7] = Criterion met
• CC(C)n1nc(C#N)c2cc(-c3cc(C(=O)OCCCCO[N+](=O)[O-])ccn3)ccc21 [Compound 39] = Criterion met
• COC(=O)c1ccnc(-c2ccc3c(c2)c(C#N)nn3C(C)C)c1 [Compound 19] = Criterion not met

###

Test: Pharmacokinetics of the compounds in SD rats (Example 36)
Assay type: in vivo
Conditions: po; Gavage administration - 10 mg/kg; SD rat plasma
MEASUREMENT_KIND: MRT inf (h)

• CC(=O)OCCOC(=O)c1ccnc(-c2ccc3c(c2)c(C#N)nn3C(C)C)c1 [Compound 28] = 3.55
• COC(=O)c1cnn(-c2ccc3c(c2)c(C#N)nn3C(C)C)c1 [Compound 5] = 3.17
• COC(=O)c1ccnc(-c2ccc3c(c2)c(C#N)nn3C(C)C)c1 [Compound 19] = 2.86
• CCOC(=O)c1cnn(-c2ccc3c(c2)c(C#N)nn3C(C)C)c1 [Compound 2] = 4.78
• CC(C)OC(=O)c1cnn(-c2ccc3c(c2)c(C#N)nn3C(C)C)c1 [Compound 7] = 3.84

###

# Uric acid 1 h per entry
System: potassium oxonate-induced hyperuricemic rats
Test: Serum uric acid in potassium oxonate-induced hyperuricemic rats, 3 days of gavage (Example 35)
Format: in vivo, SD rats
Conditions: serum; 2 mg/kg gavage for 3 days; day 3, 1 h after potassium oxonate injection; mean ± SD
Method: Compound 13 was a light yellow powder, and compounds 38 and 41 are pseudo-white powders, which are triturated with 0.5% CMC-Na just prior to use to prepare a 0.4 mg/mL suspension for gavage. 36 male SD rats weighed approximately 220-240 g after one week of adaptation. […] The drugs in each group were prepared into a corresponding concentration suspension, and the administration volume was 0.5 mL/100 g. […] The measurement data of each test were expressed as (mean)±standard deviation). […]
MEASUREMENT_KIND: Uric acid 1 h (µmol/L)

* Cc1nc(-c2ccc(OCC(C)C)c(C#N)c2)sc1C(=O)O [Febuxostat, reference compound] | 34.4
* CC(C)=CCC/C(C)=C/CC/C(C)=C/COC(=O)c1cnn(-c2ccc3c(c2)c(C#N)nn3C(C)C)c1 [Compound 13] | 42.1
* CC(C)n1nc(C#N)c2cc(-n3cc(C(=O)Oc4cccc(CO[N+](=O)[O-])c4)cn3)ccc21 [Compound 41] | 74.1
* CC(C)n1nc(C#N)c2cc(-n3cc(C(=O)OCCCCO[N+](=O)[O-])cn3)ccc21 [Compound 38] | 67.5

FYI, the data here is from patent US20250282753A1.
